Data credit: patent US11339171B2

test system: human osteosarcoma cell line SJSA-1; assay: Inhibition of proliferation of human osteosarcoma cell line SJSA-1 (DAPI staining, In Cell Analyzer); conditions: Homo sapiens, SJSA-1, 72 h, read-out: IC50 (nM), inhibitory activity on proliferation of human osteosarcoma cell line SJSA-1, SJSA-1, incubated 72 h
// classify: if (IC50 < 800 nM) 1 (yes) else 0 (no)

API: query returns whether the compound falls strictly under 800 nM in IC50. Query: `COc1ccccc1-c1nc2c(n1C(C)C)[C@@]1(C(=O)Nc3cc(Cl)ccc31)N(c1cc(Cl)ccc1C)C2=O` 1 (yes)

Please answer likewise for `COc1ncc(-c2nc3c(n2C(C)C)[C@]2(C(=O)Nc4cc(Cl)ccc42)N(c2cc(Cl)ccc2C)C3=O)c(OC)n1` 0 (no)

Let us now turn to `COc1cc(N(C)C)ncc1-c1nc2c(n1C(C)C)[C@@]1(C(=O)Nc3cc(Cl)ccc31)N(c1cccc(Cl)c1)C2=O` 1 (yes)

Another compound to look at: `CCc1ccc(Cl)cc1N1C(=O)c2nc(-c3cnc(OC)nc3OC)n(C(C)C)c2[C@]12C(=O)Nc1cc(Cl)ccc12` 0 (no)

Repeat with `COc1cc(C2CC2)ncc1-c1nc2c(n1C(C)C)[C@@]1(C(=O)Nc3cc(Cl)ccc31)N(c1cccc(Cl)c1)C2=O` 1 (yes)

Here is the next compound: `COc1ccc(C)cc1-c1nc2c(n1C(C)C)[C@]1(C(=O)Nc3cc(Cl)ccc31)N(c1cc(Cl)ccc1C)C2=O` 0 (no)

Entry to check: `COc1nc(C)ncc1-c1nc2c(n1C(C)C)[C@@]1(C(=O)Nc3cc(Cl)ccc31)N(c1cc(Cl)ccc1C)C2=O` 1 (yes)

Same thing, different compound: `COc1cc(Cl)cc(N2C(=O)c3nc(-c4cnc(OC)nc4OC)n(C(C)C)c3[C@@]23C(=O)Nc2cc(Cl)ccc23)c1` 1 (yes)

Then what about the compound `COc1cc(C2CC2)cc(OC)c1-c1nc2c(n1C(C)C)[C@@]1(C(=O)Nc3cc(Cl)ccc31)N(c1cc(Cl)ccc1C)C2=O` ? 1 (yes)

Entry to check: `COc1ncc(-c2cc3c(n2C(C)C)[C@@]2(C(=O)Nc4cc(Cl)ccc42)N(c2cc(Cl)ccc2C)C3=O)c(OC)n1` 0 (no)

###

Here we list compounds with their recorded IC50 when tested on MDM2 (Homo sapiens).
Sequence (Q00987 whole entry): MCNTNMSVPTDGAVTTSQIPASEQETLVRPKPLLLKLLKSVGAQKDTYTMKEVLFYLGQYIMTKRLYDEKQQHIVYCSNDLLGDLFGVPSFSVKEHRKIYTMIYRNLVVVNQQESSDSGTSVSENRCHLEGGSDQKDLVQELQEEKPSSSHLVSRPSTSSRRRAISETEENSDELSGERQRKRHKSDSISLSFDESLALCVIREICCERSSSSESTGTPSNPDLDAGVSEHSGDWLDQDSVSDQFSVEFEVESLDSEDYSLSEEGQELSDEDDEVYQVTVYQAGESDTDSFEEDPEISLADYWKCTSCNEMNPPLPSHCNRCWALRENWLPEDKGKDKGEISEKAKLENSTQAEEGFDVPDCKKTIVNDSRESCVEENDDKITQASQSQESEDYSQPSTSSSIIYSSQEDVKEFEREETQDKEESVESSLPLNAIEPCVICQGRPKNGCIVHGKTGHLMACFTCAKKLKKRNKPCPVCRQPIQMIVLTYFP
Reply numerically in nM, unit not repeated.

Give the measured IC50 of `COc1cc(C#N)ccc1-c1nc2c(n1C(C)C)[C@@]1(C(=O)Nc3cc(Cl)ccc31)N(c1cccc(Cl)c1)C2=O` . 1.09

Would you kindly repeat that for `CCOc1cc(OC)c(-c2nc3c(n2C(C)C)[C@]2(C(=O)Nc4cc(Cl)ccc42)N(c2cc(Cl)ccc2C)C3=O)cn1` ? 214

Follow-up entry: `COc1nc(C2CC2)ncc1-c1nc2c(n1C(C)C)[C@@]1(C(=O)Nc3cc(Cl)ccc31)N(c1cc(F)cc(Cl)c1)C2=O` 4.12

Please answer likewise for `COc1ncc(-c2nc3c(n2C(C)C)[C@@]2(C(=O)Nc4cc(Cl)ccc42)N(c2cc(Cl)ccc2F)C3=O)c(OC)n1` 1.18

What about this compound? `COc1ncc(-c2nc3c(n2C(C)C)[C@@]2(C(=O)Nc4cc(Cl)ccc42)N(c2ccc(F)c(Cl)c2)C3=O)c(OC)n1` 4.92
